# target_of_assay: UniProt P21453
# test_description: In vitro functional activity (agonism) on human S1P1 receptors (method B), CHO-K1-human S1P1 cAMP assay
# Type: cell-based
# condition_info: determined using method B (cAMP, forskolin)
Overview of recorded S1P1^B pEC50 for various compounds
Enter a number only.

| compound | S1P1^B pEC50 |
| --- | --- |
| CC(CN1CCc2oc(-c3ccc(OCc4ccc(Cl)cc4)cc3)nc2C1)C(=O)O (stereo not shown) [Compound 157] | 6.2 |
| O=C(O)CCCN1CCc2oc(-c3ccc(OCc4ccc(Cl)c(Cl)c4)cc3F)nc2C1 [Compound 227] | 6.0 |

The record that follows has no S1P1^B pEC50 shown yet.
// query Which value of S1P1^B pEC50 has been reported for O=C(O)CCCN1CCc2oc(-c3ccc(OCc4ccc(Cl)cc4)c(F)c3)nc2C1 [Compound 211] in the records?
// result 6.1

----------
Overview of recorded EC50 for various compounds
# target_of_assay: human S1P1 receptor (Homo sapiens (Human))
# test_description: In vitro functional activity (agonism) on human S1P1 receptors (method B), CHO-K1-human S1P1 cAMP assay
# Assay type: cell-based
# condition_info: determined using method B (cAMP, forskolin), read-out: S1P1^B pEC50 (converted)
Just the number please, in nM, no unit attached.

// solved cases for EC50 follow
| compound | u | EC50 |
| --- | --- | --- |
| CC(CC(=O)O)N1CCc2oc(-c3ccc(OCc4ccccc4)cc3)cc2C1 (stereo not shown) [Compound 76] | nM | 251 |
| O=C(O)CCCN1CCc2oc(-c3ccc(OCc4ccccc4F)cc3)cc2C1 [Compound 35] | nM | 251 |
| O=C(O)CCN1CCc2oc(-c3ccc(OCc4ccccc4F)cc3)cc2C1 [Compound 33] | nM | 100 |

// query Which value of EC50 has been reported for CC(CN1CCc2oc(-c3ccc(OCc4ccc(Cl)cc4)cc3)cc2C1)C(=O)O (stereo not shown) [Compound 77] in the records?
// result 31.6

----------
# target_of_assay: human S1P5 receptor (Homo sapiens (Human), UniProt Q9H228)
# Sequence (Q9H228 whole entry): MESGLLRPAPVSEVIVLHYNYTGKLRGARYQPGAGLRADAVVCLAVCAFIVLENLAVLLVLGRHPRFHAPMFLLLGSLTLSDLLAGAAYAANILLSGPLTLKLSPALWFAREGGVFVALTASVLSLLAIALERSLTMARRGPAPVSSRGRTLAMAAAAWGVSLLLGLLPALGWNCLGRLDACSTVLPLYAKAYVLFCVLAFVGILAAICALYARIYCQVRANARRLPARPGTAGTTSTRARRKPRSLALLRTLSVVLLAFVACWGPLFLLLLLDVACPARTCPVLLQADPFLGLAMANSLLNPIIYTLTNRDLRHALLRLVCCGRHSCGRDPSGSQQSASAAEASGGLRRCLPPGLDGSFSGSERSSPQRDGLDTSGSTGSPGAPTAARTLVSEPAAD
# test_description: In vitro functional activity (agonism) on human S1P5 receptors, CHO-human-S1P5-Aequorin assay
# Type: cell-based
# condition_info: aequorin luminescence
property_name: S1P5 pEC50
Enter a number only.

// solved cases for S1P5 pEC50 follow
| compound | S1P5 pEC50 |
| --- | --- |
| O=C(O)CCCN1CCc2oc(-c3ccc(OCc4ccc(Cl)c(Cl)c4)cc3F)nc2C1 [Compound 227] | 8.5 |
| CC(CN1CCc2oc(-c3ccc(OCc4ccc(Cl)cc4)cc3)nc2C1)C(=O)O (stereo not shown) [Compound 157] | 8.1 |

// query Which value of S1P5 pEC50 has been reported for O=C(O)CCCN1CCc2oc(-c3ccc(OCc4cccc(F)c4F)cc3)nc2C1 [Compound 57] in the records?
// result 8.0

// query Which value of S1P5 pEC50 has been reported for CC(CN1CCc2oc(-c3ccc(OCc4ccc(C(F)(F)F)cc4)cc3F)nc2C1)C(=O)O (stereo not shown) [Compound 271] in the records?
// result 8.0

----------
Overview of recorded EC50 for various molecules
# target_of_assay: human S1P5 receptor (Homo sapiens (Human), UniProt Q9H228)
# test_description: In vitro functional activity (agonism) on human S1P5 receptors, CHO-human-S1P5-Aequorin assay
# Type: cell-based
# condition_info: aequorin luminescence, read-out: S1P5 pEC50 (converted)
Just the number please, in nM, no unit attached.

| molecule | EC50 (nM) |
| --- | --- |
| O=C(O)CCN1CCc2oc(-c3ccc(OCc4ccccc4F)cc3)cc2C1 | 15.8 |

// query Which value of EC50 has been reported for CC(CC(=O)O)N1CCc2oc(-c3ccc(OCc4ccccc4)cc3)cc2C1 (stereo not shown) in the records?
// result 7.94

// query Which value of EC50 has been reported for CC(CN1CCc2oc(-c3ccc(OCc4ccc(Cl)cc4)cc3)cc2C1)C(=O)O (stereo not shown) in the records?
// result 3.98

// query Which value of EC50 has been reported for O=C(O)CCCN1CCc2oc(-c3ccc(OCc4ccccc4F)cc3)cc2C1 in the records?
// result 5.01

----------
# target_of_assay: human S1P5 receptor (Homo sapiens (Human))
# test_description: In vitro functional activity (agonism) on human S1P5 receptors, CHO-human-S1P5-Aequorin assay
# Type: cell-based
# condition_info: aequorin luminescence
property_name: S1P5 pEC50
Enter a number only.

| compound | S1P5 pEC50 |
| --- | --- |
| O=C(O)CCCN1CCc2oc(-c3ccc(OCc4ccccc4F)cc3F)cc2C1 | 8.2 |
| O=C(O)CCCN1CCc2oc(-c3ccc(OCc4ccc(Cl)cc4)c(F)c3)nc2C1 | 8.3 |
| CC(CN1CCc2oc(-c3ccc(OCc4ccccc4)cc3)nc2C1)C(=O)O (stereo not drawn) | 7.8 |

// query Record lookup: for human S1P5 receptor (Homo sapiens (Human)), what S1P5 pEC50 belongs to O=C(O)CCCN1CCc2oc(-c3ccc(OCc4ccc(C(F)(F)F)cc4)cc3F)nc2C1 ?
// result 8.6

// query Record lookup: for human S1P5 receptor (Homo sapiens (Human)), what S1P5 pEC50 belongs to O=C(O)C1CC(N2CCc3oc(-c4ccc(OCc5ccc(OC(F)(F)F)cc5)cc4)nc3C2)C1 (stereo not drawn) [Compound 306] ?
// result 8.1

// query Record lookup: for human S1P5 receptor (Homo sapiens (Human)), what S1P5 pEC50 belongs to O=C(O)C1CC(N2CCc3oc(-c4ccc(OCc5ccc(OC(F)(F)F)cc5)cc4)nc3C2)C1 (stereo not drawn) [Compound 307] ?
// result 7.3

----------
# target_of_assay: human S1P5 receptor (Homo sapiens (Human))
# test_description: In vitro functional activity (agonism) on human S1P5 receptors, CHO-human-S1P5-Aequorin assay
# Format: cell-based
# condition_info: aequorin luminescence
property_name: S1P5 pEC50
Enter a number only.

| compound | target_of_assay | S1P5 pEC50 |
| --- | --- | --- |
| O=C(O)C1CC(N2CCc3oc(-c4ccc(OCc5ccc(F)c(F)c5)cc4)nc3C2)C1 (centres unmarked) [Compound 277] | human S1P5 receptor (Homo sapiens (Human)) | 8.5 |
| O=C(O)CCN1CCc2oc(-c3ccc(OCc4ccccc4)cc3)nc2C1 | human S1P5 receptor (Homo sapiens (Human)) | 8.0 |
| CC(CC(=O)O)N1CCc2oc(-c3ccc(OCc4cccc(F)c4F)cc3)nc2C1 (centres unmarked) | human S1P5 receptor (Homo sapiens (Human)) | 8.3 |
| Cc1cc(OCc2ccccc2F)ccc1-c1nc2c(o1)CCN(CCCC(=O)O)C2 | human S1P5 receptor (Homo sapiens (Human)) | 8.2 |
| CC(CN1CCc2oc(-c3ccc(OCc4ccc(C(F)(F)F)cc4)cc3)nc2C1)C(=O)O (centres unmarked) | human S1P5 receptor (Homo sapiens (Human)) | 8.4 |
| O=C(O)CCCN1CCc2oc(-c3ccc(OCc4ccccc4F)c(Cl)c3)nc2C1 | human S1P5 receptor (Homo sapiens (Human)) | 7.7 |

// query Which value of S1P5 pEC50 has been reported for O=C(O)CCCN1CCc2oc(-c3ccc(OCc4ccccc4)cc3)nc2C1 in the records?
// result 7.9

// query Which value of S1P5 pEC50 has been reported for O=C(O)C1CC(N2CCc3oc(-c4ccc(OCc5ccc(F)c(F)c5)cc4)nc3C2)C1 (centres unmarked) [Compound 278] in the records?
// result 7.4

----------
Overview of recorded S1P1^B pEC50 for various molecules
# target_of_assay: human S1P1 receptor (Homo sapiens (Human), UniProt P21453)
# Sequence (P21453 whole entry): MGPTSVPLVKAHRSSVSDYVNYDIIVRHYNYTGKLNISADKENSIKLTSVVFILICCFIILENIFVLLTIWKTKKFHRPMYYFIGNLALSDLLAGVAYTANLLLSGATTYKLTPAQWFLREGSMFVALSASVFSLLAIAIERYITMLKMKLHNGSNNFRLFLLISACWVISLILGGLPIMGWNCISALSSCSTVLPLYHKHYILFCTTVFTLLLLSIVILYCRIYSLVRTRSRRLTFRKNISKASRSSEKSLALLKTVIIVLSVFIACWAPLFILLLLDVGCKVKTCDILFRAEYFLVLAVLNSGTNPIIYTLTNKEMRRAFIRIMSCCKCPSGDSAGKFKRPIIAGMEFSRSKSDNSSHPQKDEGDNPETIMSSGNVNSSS
# test_description: In vitro functional activity (agonism) on human S1P1 receptors (method B), CHO-K1-human S1P1 cAMP assay
# Type: cell-based
# condition_info: determined using method B (cAMP, forskolin)
Enter a number only.

// solved cases for S1P1^B pEC50 follow
| molecule | S1P1^B pEC50 |
| --- | --- |
| CC(CN1CCc2oc(-c3ccc(OCc4ccc(C(F)(F)F)cc4)cc3)nc2C1)C(=O)O (centres unmarked) | 6.2 |
| O=C(O)CCCN1CCc2oc(-c3ccc(OCc4ccccc4F)cc3F)cc2C1 | 8.0 |
| Cc1cc(OCc2ccccc2F)ccc1-c1nc2c(o1)CCN(CCCC(=O)O)C2 | 5.9 |

The record that follows has no S1P1^B pEC50 shown yet.
// query Which value of S1P1^B pEC50 has been reported for CC(CN1CCc2oc(-c3ccc(OCc4ccc(C(F)(F)F)cc4)cc3F)nc2C1)C(=O)O (centres unmarked) in the records?
// result 6.2

----------
Overview of recorded EC50 for various molecules
# target_of_assay: human S1P3 receptor (Homo sapiens (Human))
# Sequence (Q99500 whole entry): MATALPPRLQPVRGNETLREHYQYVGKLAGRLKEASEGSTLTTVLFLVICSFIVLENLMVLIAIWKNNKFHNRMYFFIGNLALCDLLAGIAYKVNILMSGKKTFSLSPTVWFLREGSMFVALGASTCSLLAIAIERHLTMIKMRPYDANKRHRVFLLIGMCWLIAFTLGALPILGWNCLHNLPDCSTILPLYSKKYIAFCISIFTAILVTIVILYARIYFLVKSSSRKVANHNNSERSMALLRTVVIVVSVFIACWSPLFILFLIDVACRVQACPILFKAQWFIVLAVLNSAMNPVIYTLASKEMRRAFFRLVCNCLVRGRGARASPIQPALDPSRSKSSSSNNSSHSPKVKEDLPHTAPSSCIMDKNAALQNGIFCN
# test_description: In vitro functional activity (agonism) on human S1P3 receptors, CHO-human-S1P3-Aequorin assay
# Assay type: cell-based
# condition_info: aequorin luminescence, read-out: S1P3 pEC50 (converted)
Just the number please, in µM, no unit attached.

// solved cases for EC50 follow
| molecule | target_of_assay | property_name | u | quantitative_readout |
| --- | --- | --- | --- | --- |
| O=C(O)CCCN1CCc2oc(-c3ccc(OCc4ccccc4F)cc3)cc2C1 | human S1P3 receptor (Homo sapiens (Human)) | EC50 | µM | 5.01 |
| O=C(O)CCN1CCc2oc(-c3ccc(OCc4ccccc4F)cc3)cc2C1 | human S1P3 receptor (Homo sapiens (Human)) | EC50 | µM | 3.16 |

// query Which value of EC50 has been reported for CC(CN1CCc2oc(-c3ccc(OCc4ccc(Cl)cc4)cc3)cc2C1)C(=O)O (stereo not shown) in the records?
// result 0.794
